Origin of measurements: a melting point compilation (Tetko et al.; mined from patent text by program, amines drawn as free bases though some values may be those of a salt)

measurement-name: melting point

{"columns": ["compound", "melting point"],
 "data": [
  ["OC1CSC(Oc2ccc(-c3ccc(N4CCCCC4)cc3)nc2)C(O)C1O (configuration not stated)", "221 °C"],
  ["COc1ccccc1[C@@]1(O)[C@@H]2CNC[C@@H]2C(c2ccccc2)(c2ccccc2)C[C@@H]1O", "230 °C"],
  ["NS(=O)(=O)NC(=O)CNC(=O)NCCCCC1CCSS1 (configuration not stated)", "143 to 145 °C"],
  ["CCOC(=O)c1sc(Nc2ccccc2)c2c1CCc1cn[nH]c1-2", "202 to 203 °C"],
  ["CSc1ccc(-c2nc(O)c(C(=O)Nc3ccc(C)cc3)c(SC)n2)cc1", "302 to 305 °C"]
]}

Given item "C#CCN1C(Oc2ccc(C)cc2)=NS(=O)(=O)N=C1Oc1ccc(C)cc1" , the value recorded as its melting point is 279 to 280 °C

The reported value for "COCOc1ccc(C=CC(=O)c2ccc(OCc3ccccc3)cc2OC(C)=O)c(OCc2ccccc2)c1" in terms of melting point is 94 to 96 °C

Form field melting point, entry "O=C1NC(=O)c2c1ccc1[nH]c3ccc(O)cc3c21" : 335 to 345 °C

"CCCNc1cccc2c1C(=O)c1cccc(NCCC)c1C2=O" yielded melting point of 153 to 154 °C

# melting point (compound: CS(=O)c1cnc2c(c1)CCC(c1ccc(Cl)c(Cl)c1)O2 (configuration not stated) ) is 159 to 162 °C

The recorded melting point for CCOC(=O)C(S)CC(=O)c1ccc(Oc2ccc(Cl)cc2)cc1 (configuration not stated) is 75.5 to 76.5 °C

Form: compound = "COc1ccc(C)cc1NC(=O)Nc1ccc(N2CCN(C(=O)Oc3ccccc3)CC2)cc1" ; melting point = 179 °C

Value of melting point reported for the compound O=C(C=Cc1ccc(-c2ccc(Cl)cc2)cc1)NC(Cc1ccc(OCc2ccccc2)cc1)C(=O)O (configuration not stated) is 253 to 254 °C
